Tested on: RPMI-8226 leukemia
Protocol summary: NCI tumour cell line growth inhibition, 48 h; in the data active = GI50 below about 0.43 µM; inactive = the rest
One label from this list, please: active, inactive

For Nc1ccc(N)c2c1C(=O)c1cccc([N+](=O)[O-])c1C2=O , which call appears in the assay record?
inactive

Can you look up the reported call for C/C(=N\NC(=O)c1ccncc1)c1ccccc1O for me?
inactive

Check the results log: what was the call for CCNc1nc(-c2ccc(Cl)c(OC)c2)c(-c2ccnc(NCCNS(=O)(=O)c3ccc(Cl)cc3)n2)s1 ?
inactive

How did this test come out for O=C(c1ccccc1)c1ccc(N2C(=O)C3C4c5ccccc5C(/C=C/C(=O)c5ccccn5)(c5ccccc54)C3C2=O)cc1 (stereo not drawn) ?
inactive

Can you look up the reported call for N#Cc1c(N)nc(N2CCOCC2)c(C#N)c1-c1ccc(Cl)cc1Cl for me?
inactive

Which outcome was assigned to c1csc(-c2[nH]nc3c2CCc2ccccc2-3)c1 in this test?
inactive

Dear colleague, could you share the recorded outcome for NNC(=O)COc1nc(-c2cccs2)nc2ccc(I)cc12 when you have a moment?
inactive

Hey, what did the test say about Cc1c(N)nc(C2CC(=O)N2CC(N)C(N)=O)nc1C(=O)NC(C(=O)NC(C)C(O)C(C)C(=O)NC(C(=O)NCCc1nc(-c2nc(C(=O)NCCNCC(C)O)cs2)cs1)C(C)O)C(OC1OC(CO)C(O)C(O)C1OC1OC(CO)C(O)C(OC(N)=O)C1O)c1cnc[nH]1 (stereo not drawn) ?
inactive

Assay result, entry N#Cc1c(N/N=C/c2c(Cl)cccc2Cl)nc(N)nc1N1CCCC1 — outcome?
inactive

Given COc1cc2c(cc1OCCCN1CCN(CCCn3c4ccccc4c4ccccc43)CC1)N=C[C@@H]1CCCN1C2=O , state the outcome it received in this test.
active

Hello, I am checking results. What call was entered for Cn1c(=O)c(Oc2ccc(F)cc2F)cc2cnc(NC3CCC(O)CC3)nc21 (stereo not drawn) ?
inactive

Look up the recorded call for Cc1cc(N(CCCl)CCCl)ccc1/C=N\NC(=O)c1cccnc1 in this test.
inactive

For Cc1cccc(Cc2cnc(NC(=O)CCCOc3ccc(Cl)cc3)s2)c1 , which call appears in the assay record?
inactive

Dear colleague, could you share the recorded outcome for CC(=O)OC1CCC2(C)C(=CCC3C4CC(CN5CC5)C(=O)C4(C)CCC32)C1 (stereo not drawn) when you have a moment?
inactive

// outcome(item) with item = COc1cccc2c(Nc3ccc(C(=O)NCCN4CCNCC4)cc3)cc(-c3ccccc3)nc12
inactive

Please state the recorded outcome for this compound: Cn1c(=O)c(-c2c(Cl)cccc2Cl)cc2cnc(Nc3ccc(N4CCOCC4)cc3)nc21
active

Kindly provide the recorded test outcome for the following compound: COc1ccc(Cl)cc1Nc1nc(C(F)(F)F)ccc1C(=O)N/N=C/c1ccc(Cl)cc1
inactive

Hi, sorry to bother you, what did the test record for O=C(Nc1cccc(C(F)(F)F)c1)Nc1cc(S(=O)(=O)NC2CC2)ccc1-c1ccsc1 ?
inactive

====

Tested on: IGROV1 ovarian
Protocol summary: NCI tumour cell line growth inhibition, 48 h
Property measured: TGI

What value of measured TGI is listed for Clc1cc2ncn(C3CCCO3)c2cc1Cl (stereo unspecified) ?
69.5 µM

Looking for the measured TGI of CN1C/C(=C\c2ccco2)c2nc(N)nc(-c3ccco3)c2C1 , can you help?
> 100 µM

Field request: TGI | item: COc1cc(-c2nn(-c3cccc(NC(=O)c4cccc(C(F)(F)F)c4)c3)cc2-c2ccncc2)ccc1Cl
> 50 µM

For the compound NC1CC(n2ccc(=O)[nH]c2=O)OC1C(O)CO (stereo unspecified) , what TGI is on record?
> 100 µM

# query: TGI of entry O=C1Cc2c(-c3ccccc3)cc(-c3ccc(Cl)cc3)nc2-c2ccccc2N1
35.9 µM

Which TGI is listed for CC1=CC(=O)N2[C@H](OC[C@@H]2C(C)C)O1 ?
> 100 µM

====

System: OVCAR-8 ovarian
Protocol summary: NCI tumour cell line growth inhibition, 48 h; in the data active = GI50 below about 0.43 µM; inactive = the rest
Lab note: assign the record to one of active, inactive

Fill in: this test's call for CCC(=C(c1ccc(OCCN(CC)CC)cc1)c1ccc(OCCN(CC)CC)cc1)c1ccc(Cl)cc1 is ___
inactive

# outcome recorded in this test, key = Cc1cc(N(CCCl)CCCl)ccc1/C=N\NC(=O)c1cccnc1
inactive

Assay result, entry Cn1c(=O)c(-c2c(Cl)cccc2Cl)cc2cnc(Nc3ccc(N4CCOCC4)cc3)nc21 — outcome?
inactive

// outcome(item) with item = Cc1c(-c2ccc(N3CCc4cccc(C(=O)Nc5nc6ccccc6s5)c4C3)nc2C(=O)O)cnn1CC12CC3CC(CC(C3)C1)C2
inactive

Just curious, what result did O=C(COC(=O)[C@H](C[Se][Se]C[C@H](NC(=O)c1ccc(Br)cc1F)C(=O)OCC(=O)c1ccc(F)cc1)NC(=O)c1ccc(Br)cc1F)c1ccc(F)cc1 get here?
active

Outcome logged for ClCc1ccc(Cn2cnc3nc(Cl)nc(Cl)c32)cc1 in this assay:
inactive

What outcome does the record of this test show for CN1CCN(Cc2ccc(NC(=O)c3cncc(C#Cc4cnc5cccnn45)c3)cc2C(F)(F)F)CC1 ?
inactive

# outcome recorded in this test, key = O=C(Nc1cccc(C(F)(F)F)c1)Nc1cc(S(=O)(=O)NC2CC2)ccc1-c1ccsc1
inactive

Please share the test call associated with c1csc(-c2[nH]nc3c2CCc2ccccc2-3)c1 .
inactive

====

Tested on: SK-OV-3 ovarian
Protocol summary: NCI tumour cell line growth inhibition, 48 h
So I've got a bunch of molecules here, and I need their GI50 values.

What value of measured GI50 is listed for Clc1ccc(N=CNc2ccc(-c3nc4ccccc4[nH]3)cc2)cc1 ?
> 100 µM

# GI50 lookup, item C/C(=N\NC(=O)c1ccncc1)c1ccccc1O
4.84 µM

Query: GI50; subject: COc1cc(/C=C/C(=O)c2c(-c3ccc(Cl)cc3)nc3sc(C)nn23)cc(OC)c1OC
66.6 µM

Entry Oc1ccc(/C=N/Nc2nnc(N/N=C/c3ccc(O)cc3O)c3ccccc23)c(O)c1 has what GI50?
0.552 µM

Give the measured GI50 of Cn1c(=O)c(Oc2ccc(F)cc2F)cc2cnc(NC3CCC(O)CC3)nc21 (centres undefined) .
> 25 µM

So what does the record say about GI50 for O=C(Nc1cccc(C(F)(F)F)c1)Nc1ccc(OCc2nnc(-c3ccccc3)o2)c(F)c1 ?
5.57 µM

What value of GI50 has been reported for the following molecule? COc1cc(-c2nn(-c3cccc(NC(=O)c4cccc(C(F)(F)F)c4)c3)cc2-c2ccncc2)ccc1Cl
2.29 µM

Item under review: Nc1ccc(N)c2c1C(=O)c1cccc([N+](=O)[O-])c1C2=O . Reported GI50?
3.43 µM

Sample Cc1c(-c2ccc(N3CCc4cccc(C(=O)Nc5nc6ccccc6s5)c4C3)nc2C(=O)O)cnn1CC12CC3CC(CC(C3)C1)C2 — what was its GI50?
6.99 µM

====

System: M14 melanoma
Protocol summary: NCI tumour cell line growth inhibition, 48 h
Please respond with reported TGI for every item in the list.
Give the number; µM is assumed, so skip it.

Which TGI reading was recorded for the compound NNC(=O)COc1nc(-c2cccs2)nc2ccc(I)cc12 ?
58.3

So what does the record say about TGI for CCCCCNC(=O)OC1CCn2c1nc1c2C(=O)C(C)=C(N2CC2)C1=O (configuration not stated) ?
4.04

Item N#Cc1c(N)nc(N2CCOCC2)c(C#N)c1-c1ccc(Cl)cc1Cl has what recorded TGI?
42

# input compound: C(/Cc1ccc2c(c1)OCO2)=N\NC1=NCCCCN1 ; wanted: its TGI
35.1

Item CCCCc1c2c(nc3c1CC/C(=C\c1ccccc1)C3=O)CCCC2 has what recorded TGI?
18.9

Find the recorded TGI belonging to Cn1nc(-c2ccccc2)c(C(=O)/C=C/c2ccccc2)c(N2CCCC2)c1=O and report it.
35.3

GET /values?readout=TGI&item= O=C(/C=C/N1CCN(c2cccc(Cl)c2)CC1)c1ccc(Cl)cc1
42.3

For the compound shown here, CCn1c(SC)nnc1-c1cc2c([nH]c3ccccc32)c(-c2cccc(O)c2)n1 , give the reported TGI.
12.5

# get_value(readout='TGI', item= CCOC(=O)C(NC(=O)c1cccc(Cl)c1)(N1CCN(c2cc3c(cc2F)c(=O)c(C(=O)O)cn3CC)CC1)C(F)(F)F (configuration not stated) )
31.9

What does the record list as TGI for COc1ccc(-c2ccc(/C=N/n3c(COc4ccc(Cl)c(C)c4)nn(CN4CCOCC4)c3=S)o2)c([N+](=O)[O-])c1 ?
66.6

Recorded TGI for COc1ccc(N=C(SSC(=Nc2ccc(OC)cc2)c2ccc([N+](=O)[O-])o2)c2ccc([N+](=O)[O-])o2)cc1 , please?
4.98

I'd like to know its TGI. The compound in question is CCN(CC)CCCNc1nnc(C)c2[nH]c3ccccc3c12
32.4
